assay: qHTS assay for small molecules that induce genotoxicity in human embryonic kidney cells expressing luciferase-tagged ATAD5 (AID 651632); conditions: HEK293T ATAD5-luciferase induction, 16 h; series mostly up to 83.3 µM; note: nearly all actives have a fitted effect of over 15% in size
Inconclusive results are not listed. Calls of active or inactive are those of the source. Calls come from the whole dose curve; as a rule, active = well fitted activation curve with a large enough effect in the repeat runs; inconclusive = weak or mixed curves; inactive = no such curve, though single readings can be large or run the other way.
Possible outcomes: t for active, f for inactive

compound=OCl group_label=f
compound=CCOc1ccc([N+](=O)[O-])cc1 group_label=f
compound=N[C@@H](Cc1cnc[nH]1)C(=O)O group_label=f
compound=CCCCCCCCCCCC[n+]1ccc2ccccc2c1 group_label=f
compound=O=P(O)(O)OP(=O)(O)OP(=O)(O)O group_label=f
compound=CN(Cc1ccccc1)Cc1ccccc1 group_label=f
compound=COc1cc(/C=C/C(=O)CC(=O)/C=C/c2ccc(O)c(OC)c2)ccc1O group_label=f
compound="CSCCC(N)C(=O)O (stereo unspecified)" group_label=f
compound=CC(C)CCC[C@@H](C)[C@H]1CC[C@H]2[C@@H]3CC[C@@H]4C[C@H](O)CC[C@]4(C)[C@H]3CC[C@]12C group_label=f
compound=C[C@@H]1C[C@H]2[C@@H]3C[C@H](F)C4=CC(=O)C=C[C@]4(C)[C@@]3(Cl)[C@@H](O)C[C@]2(C)[C@H]1C(=O)COC(=O)C(C)(C)C group_label=f
compound="Cc1cc(CC(C)CC(C)(C)C)n(O)c(=O)c1 (stereo unspecified) (tested in a mixture with another compound)" group_label=t
